# System: rabbit red blood cells
# Assay type: cell-based
# assay_context: red cells of rabbit, 1 h
Non-standard residues stand in square brackets, D forms with d. Residues, ends and D or L forms follow the SMILES beside them. dPhe(3,4-F2) = N[C@H](Cc1ccc(F)c(F)c1)C(=O)O; dPhe(4-Br) = N[C@H](Cc1ccc(Br)cc1)C(=O)O; 2Nal = N[C@@H](Cc1ccc2ccccc2c1)C(=O)O
readout_type: MHC (minimum hemolytic concentration, lowest concentration causing 10% hemolysis)

Guide cases for MHC (minimum hemolytic concentration, lowest concentration causing 10% hemolysis), answers given:
* CC(=O)N[C@@H](CCCNC(=N)N)C(=O)N[C@@H](CCCCN)C(=O)N[C@@H](C)C(=O)N[C@@H](C)C(=O)N[C@@H](Cc1ccc2ccccc2c1)C(=O)N[C@@H](CCCNC(=N)N)C(=O)N[C@@H](C)C(=O)N[C@@H](CCCCN)C(=O)N[C@@H](Cc1ccc2ccccc2c1)C(=O)N[C@@H](CCCNC(=N)N)C(=O)N[C@@H](CCCCN)C(N)=O [LV-45] (Ac-RKAA[2Nal]RAK[2Nal]RK-NH2) | >1000 µg/mL
* CC(=O)N[C@H](CCCNC(=N)N)C(=O)N[C@H](CCCCN)C(=O)N[C@H](CC(C)C)C(=O)N[C@H](CC(C)C)C(=O)N[C@H](Cc1ccc(F)c(F)c1)C(=O)N[C@H](CCCCN)C(=O)N[C@H](CC(C)C)C(=O)N[C@H](CCCCN)C(=O)N[C@H](Cc1ccc(F)c(F)c1)C(=O)N[C@H](CCCCN)C(=O)N[C@H](CCCNC(=N)N)C(N)=O [LV-6] (Ac-[dR][dK][dL][dL][dPhe(3,4-F2)][dK][dL][dK][dPhe(3,4-F2)][dK][dR]-NH2) | >1000 µg/mL

Now, please, on to the next compound.
Qu. For the compound CC(=O)N[C@H](CCCCN)C(=O)N[C@H](CCCCN)C(=O)N[C@H](CC(C)C)C(=O)N[C@H](CC(C)C)C(=O)N[C@H](Cc1ccc(Br)cc1)C(=O)N[C@H](CCCNC(=N)N)C(=O)N[C@H](CC(C)C)C(=O)N[C@H](CCCCN)C(=O)N[C@H](Cc1ccc(Br)cc1)C(=O)N[C@H](CCCNC(=N)N)C(=O)N[C@H](CCCCN)C(N)=O [LV-10] (Ac-[dK][dK][dL][dL][dPhe(4-Br)][dR][dL][dK][dPhe(4-Br)][dR][dK]-NH2) , report MHC (minimum hemolytic concentration, lowest concentration causing 10% hemolysis).
Ans. >1000 µg/mL

---

# System: Candida utilis ATCC 9950
# Format: cell-based
Non-standard residues stand in square brackets, D forms with d. Residues, ends and D or L forms follow the SMILES beside them. dPhe(4-F) = N[C@H](Cc1ccc(F)cc1)C(=O)O; d2Nal = N[C@H](Cc1ccc2ccccc2c1)C(=O)O
readout_type: MIC Candida utilis ATCC 9950 (mg/L)
# value in mg/L; strip the unit string

Qu. Fill: MIC Candida utilis ATCC 9950 (Candida utilis ATCC 9950) for this compound CC(=O)N[C@H](CCCNC(=N)N)C(=O)N[C@H](CCCCN)C(=O)N[C@H](CC(C)C)C(=O)N[C@H](CC(C)C)C(=O)N[C@H](Cc1ccc(F)cc1)C(=O)N[C@H](CCCCN)C(=O)N[C@H](CC(C)C)C(=O)N[C@H](CCCCN)C(=O)N[C@H](Cc1ccc(F)cc1)C(=O)N[C@H](CCCCN)C(=O)N[C@H](CCCNC(=N)N)C(N)=O [LV-5] (Ac-[dR][dK][dL][dL][dPhe(4-F)][dK][dL][dK][dPhe(4-F)][dK][dR]-NH2)
Ans. 16

Qu. Give MIC Candida utilis ATCC 9950; test system Candida utilis ATCC 9950; compound CC(=O)N[C@H](CCCCN)C(=O)N[C@H](CCCCN)C(=O)N[C@H](CC(C)C)C(=O)N[C@H](CC(C)C)C(=O)N[C@H](Cc1ccc2ccccc2c1)C(=O)N[C@H](CCCNC(=N)N)C(=O)N[C@H](CC(C)C)C(=O)N[C@H](CCCCN)C(=O)N[C@H](Cc1ccc2ccccc2c1)C(=O)N[C@H](CCCNC(=N)N)C(=O)N[C@H](CCCCN)C(N)=O [LV-19] (Ac-[dK][dK][dL][dL][d2Nal][dR][dL][dK][d2Nal][dR][dK]-NH2)
Ans. 8

Qu. Report value only: MIC Candida utilis ATCC 9950, Candida utilis ATCC 9950, CC(=O)N[C@H](CCCNC(=N)N)C(=O)N[C@H](CCCCN)C(=O)N[C@H](CC(C)C)C(=O)N[C@H](CC(C)C)C(=O)N[C@H](Cc1ccccc1)C(=O)N[C@H](CCCNC(=N)N)C(=O)N[C@H](CC(C)C)C(=O)N[C@H](CCCCN)C(=O)N[C@H](Cc1ccccc1)C(=O)N[C@H](CCCNC(=N)N)C(=O)N[C@H](CCCCN)C(N)=O [LV-2] (Ac-[dR][dK][dL][dL][dF][dR][dL][dK][dF][dR][dK]-NH2)
Ans. 8
